Test system: U-2932
Test: growth inhibition by drug plus 177Lu-lilotomab satetraxetan (1 - RLU/untreated control) (fraction); higher = stronger inhibition
Details: 1000 nM; time (day): 4; 177Lu-lilotomab satetraxetan 1 ug/ml
attribute-measured: growth inhibition by drug plus 177Lu-lilotomab satetraxetan
Just the number, please, no unit after it.

Consider the molecule CN(C)C[C@@H]1CCn2cc(c3ccccc32)C2=C(C(=O)NC2=O)c2cn(c3ccccc23)CCO1 . State its measured growth inhibition by drug plus 177Lu-lilotomab satetraxetan.
0.48

Consider the molecule CC(C)C[C@H](NC(=O)[C@H](Cc1ccccc1)NC(=O)c1cnccn1)B(O)O [Bortezomib (Velcade)] . State its measured growth inhibition by drug plus 177Lu-lilotomab satetraxetan.
0.987

Consider the molecule Cc1ccc(S(=O)(=O)C=CC#N)cc1 . State its measured growth inhibition by drug plus 177Lu-lilotomab satetraxetan.
0.193

Consider the molecule Cn1cc(-c2ccc3nnc(C(F)(F)c4ccc5ncccc5c4)n3n2)cn1 . State its measured growth inhibition by drug plus 177Lu-lilotomab satetraxetan.
-0.0707

Consider the molecule O=C(O)CCc1ccc(NCc2cccc(Oc3ccccc3)c2)cc1 . State its measured growth inhibition by drug plus 177Lu-lilotomab satetraxetan.
0.0299

Consider the molecule CNC(=O)[C@@H](NC(=O)[C@H](CC(C)C)[C@H](O)C(=O)NO)C(C)(C)C [Marimastat] . State its measured growth inhibition by drug plus 177Lu-lilotomab satetraxetan.
-0.014

Consider the molecule CC(C)C[C@H](NC(=O)[C@@H](O)[C@H](N)Cc1ccccc1)C(=O)O [Ubenimex (Bestatin)] . State its measured growth inhibition by drug plus 177Lu-lilotomab satetraxetan.
-0.0121

Consider the molecule CC(C)c1onc(-c2c(Cl)cccc2Cl)c1COc1ccc(/C=C/c2cccc(C(=O)O)c2)c(Cl)c1 . State its measured growth inhibition by drug plus 177Lu-lilotomab satetraxetan.
0.0526

Consider the molecule CCN(CC)CCCCNc1ncc2cc(-c3cc(OC)cc(OC)c3)c(NC(=O)NC(C)(C)C)nc2n1 . State its measured growth inhibition by drug plus 177Lu-lilotomab satetraxetan.
-0.0951

Consider the molecule O=c1[nH]nc(Sc2ncc([N+](=O)[O-])s2)n1-c1ccc2c(c1)OCCO2 . State its measured growth inhibition by drug plus 177Lu-lilotomab satetraxetan.
0.406

Consider the molecule CC(C)(C)c1cc(NC(=O)Nc2ccc(-c3cn4c(n3)sc3cc(OCCN5CCOCC5)ccc34)cc2)no1 [Quizartinib (AC220)] . State its measured growth inhibition by drug plus 177Lu-lilotomab satetraxetan.
-0.0657

Consider the molecule CC(=O)c1c(C)c2cnc(Nc3ccc(N4CCNCC4)cn3)nc2n(C2CCCC2)c1=O . State its measured growth inhibition by drug plus 177Lu-lilotomab satetraxetan.
-0.00616

Consider the molecule C[C@]1(c2nc3c(C(N)=O)cccc3[nH]2)CCCN1 [ABT-888 (Veliparib)] . State its measured growth inhibition by drug plus 177Lu-lilotomab satetraxetan.
0.0163

Consider the molecule Cn1cc(C2=C(c3ccc(Cl)cc3Cl)C(=O)NC2=O)c2ccccc21 . State its measured growth inhibition by drug plus 177Lu-lilotomab satetraxetan.
0.0592

Consider the molecule CCN(CC)C(=S)SSC(=S)N(CC)CC [Disulfiram (Antabuse)] . State its measured growth inhibition by drug plus 177Lu-lilotomab satetraxetan.
0.983

Consider the molecule OC[C@H]1O[C@@H](n2cnc3c2N=CNC[C@H]3O)C[C@@H]1O [Pentostatin] . State its measured growth inhibition by drug plus 177Lu-lilotomab satetraxetan.
0.0721

Consider the molecule O=C(CCc1ccc(O)cc1)c1c(O)cc(O)cc1O [Phloretin (Dihydronaringenin)] . State its measured growth inhibition by drug plus 177Lu-lilotomab satetraxetan.
0.0213
